Compiled from multiple publications: IC50 readings for Retinoic acid receptor RXR-alpha (Homo sapiens, UniProt P19793).
Experimental target: Retinoic acid receptor RXR-alpha (Homo sapiens, UniProt P19793)
Sequence (P19793 whole entry): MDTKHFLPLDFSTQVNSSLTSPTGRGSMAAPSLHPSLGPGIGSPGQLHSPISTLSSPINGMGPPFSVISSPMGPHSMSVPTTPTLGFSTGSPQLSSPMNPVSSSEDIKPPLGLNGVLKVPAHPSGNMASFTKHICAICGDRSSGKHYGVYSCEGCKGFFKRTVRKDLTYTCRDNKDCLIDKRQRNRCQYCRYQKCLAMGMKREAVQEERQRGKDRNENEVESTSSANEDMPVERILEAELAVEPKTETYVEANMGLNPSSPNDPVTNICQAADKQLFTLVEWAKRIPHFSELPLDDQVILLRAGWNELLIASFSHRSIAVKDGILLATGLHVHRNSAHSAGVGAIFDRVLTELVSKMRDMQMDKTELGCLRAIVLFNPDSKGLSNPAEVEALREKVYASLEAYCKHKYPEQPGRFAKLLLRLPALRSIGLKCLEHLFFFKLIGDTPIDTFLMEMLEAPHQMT
One number for each entry, in nM.

CCc1cc2c(cc1/C(C)=C/c1ccc(C(=O)O)cc1)C(C)(C)CCC2(C)C    320
C/C(=C\c1ccc(C(=O)O)cc1)c1cc2c(cc1C(C)C)C(C)(C)CCC2(C)C    320
Cc1cc2c(cc1C(=C1CC1)c1ccc(C(=O)O)cc1)C(C)(C)CCC2(C)C    21

Look at each molecule and report its IC50.
1. CCN(CC)c1ccc(/C=N/NC(=O)CSc2nc3ccccc3o2)c(O)c1 (mixture of isomers)
2. CCCCOc1cc2c(cc1C(=C1CC1)c1ccc(C(=O)O)cn1)C(C)(C)CCC2(C)C
3. CCCOc1cc2c(cc1C(=C1CC1)c1ccc(C(=O)O)cc1)C(C)(C)CCC2(C)C
4. CCCOc1cc2c(cc1C(=C1CC1)c1ccc(C(=O)O)cn1)C(C)(C)CCC2(C)C

2810
10
120
6
